// provenance: patent US20230073777A1

target: P300 (Homo sapiens); assay: Immunoblotting of P300 protein levels in LNCaP or 22RV1 cells; type: cell-based; parameters: LNCaP or 22RV1 cells that express CBP/P300 proteins were treated with GNE-781 or the bivalent compounds; endogenous in cells; host or cells: LNCaP (clone FGC) or 22RV1 cells; details: percentage of inhibition of p300 at 10 nM (Table 2); read-out: Degradation (10 nM)
Quantity: inhibition at 0.01 µM

Compound	Obs value
CNC(=O)N1CCc2c(c(N3CCCc4cc(-c5cnn(CC(=O)NCCCCCCCCCCC(=O)N[C@H](C(=O)N6C[C@H](O)C[C@H]6C(=O)NCc6ccc(-c7scnc7C)cc6)C(C)(C)C)c5)c(C(F)F)cc43)nn2C2CCOCC2)C1	20 to 50%
CNC(=O)N1CCc2c(c(N3CCCc4cc(-c5cnn(CC(=O)NCCNc6ccc7c(c6)C(=O)N(C6CCC(=O)NC6=O)C7=O)c5)c(C(F)F)cc43)nn2C2CCOCC2)C1 (centres unmarked)	< 20%
CNC(=O)N1CCc2c(c(N3CCCc4cc(-c5cnn(CC(=O)NCCCCNc6cccc7c6C(=O)N(C6CCC(=O)NC6=O)C7=O)c5)c(C(F)F)cc43)nn2C2CCOCC2)C1 (centres unmarked)	< 20%
CNC(=O)N1CCc2c(c(N3CCCc4cc(-c5cnn(CC(=O)NCCOCCOCCOCCNc6cccc7c6C(=O)N(C6CCC(=O)NC6=O)C7=O)c5)c(C(F)F)cc43)nn2C2CCOCC2)C1 (centres unmarked)	< 20%

Exercise: Quick one: inhibition at 0.01 µM of CNC(=O)N1CCc2c(c(N3CCCc4cc(-c5cnn(CC(=O)NCCCNc6ccc7c(c6)C(=O)N(C6CCC(=O)NC6=O)C7=O)c5)c(C(F)F)cc43)nn2C2CCOCC2)C1 (centres unmarked) ?
Solution: < 20%

###

This section presents compounds with their documented inhibition at 0.01 µM values.
molecular target: P300 (Homo sapiens, UniProt Q09472); assay: Immunoblotting of P300 protein levels in LNCaP or 22RV1 cells; type: cell-based; set-up: LNCaP or 22RV1 cells that express CBP/P300 proteins were treated with GNE-781 or the bivalent compounds; endogenous in cells; host or cells: LNCaP (clone FGC) or 22RV1 cells; conditions: percentage of inhibition of p300 at 10 nM (Table 2); read-out: Degradation (10 nM)
Sequence (Q09472 whole entry): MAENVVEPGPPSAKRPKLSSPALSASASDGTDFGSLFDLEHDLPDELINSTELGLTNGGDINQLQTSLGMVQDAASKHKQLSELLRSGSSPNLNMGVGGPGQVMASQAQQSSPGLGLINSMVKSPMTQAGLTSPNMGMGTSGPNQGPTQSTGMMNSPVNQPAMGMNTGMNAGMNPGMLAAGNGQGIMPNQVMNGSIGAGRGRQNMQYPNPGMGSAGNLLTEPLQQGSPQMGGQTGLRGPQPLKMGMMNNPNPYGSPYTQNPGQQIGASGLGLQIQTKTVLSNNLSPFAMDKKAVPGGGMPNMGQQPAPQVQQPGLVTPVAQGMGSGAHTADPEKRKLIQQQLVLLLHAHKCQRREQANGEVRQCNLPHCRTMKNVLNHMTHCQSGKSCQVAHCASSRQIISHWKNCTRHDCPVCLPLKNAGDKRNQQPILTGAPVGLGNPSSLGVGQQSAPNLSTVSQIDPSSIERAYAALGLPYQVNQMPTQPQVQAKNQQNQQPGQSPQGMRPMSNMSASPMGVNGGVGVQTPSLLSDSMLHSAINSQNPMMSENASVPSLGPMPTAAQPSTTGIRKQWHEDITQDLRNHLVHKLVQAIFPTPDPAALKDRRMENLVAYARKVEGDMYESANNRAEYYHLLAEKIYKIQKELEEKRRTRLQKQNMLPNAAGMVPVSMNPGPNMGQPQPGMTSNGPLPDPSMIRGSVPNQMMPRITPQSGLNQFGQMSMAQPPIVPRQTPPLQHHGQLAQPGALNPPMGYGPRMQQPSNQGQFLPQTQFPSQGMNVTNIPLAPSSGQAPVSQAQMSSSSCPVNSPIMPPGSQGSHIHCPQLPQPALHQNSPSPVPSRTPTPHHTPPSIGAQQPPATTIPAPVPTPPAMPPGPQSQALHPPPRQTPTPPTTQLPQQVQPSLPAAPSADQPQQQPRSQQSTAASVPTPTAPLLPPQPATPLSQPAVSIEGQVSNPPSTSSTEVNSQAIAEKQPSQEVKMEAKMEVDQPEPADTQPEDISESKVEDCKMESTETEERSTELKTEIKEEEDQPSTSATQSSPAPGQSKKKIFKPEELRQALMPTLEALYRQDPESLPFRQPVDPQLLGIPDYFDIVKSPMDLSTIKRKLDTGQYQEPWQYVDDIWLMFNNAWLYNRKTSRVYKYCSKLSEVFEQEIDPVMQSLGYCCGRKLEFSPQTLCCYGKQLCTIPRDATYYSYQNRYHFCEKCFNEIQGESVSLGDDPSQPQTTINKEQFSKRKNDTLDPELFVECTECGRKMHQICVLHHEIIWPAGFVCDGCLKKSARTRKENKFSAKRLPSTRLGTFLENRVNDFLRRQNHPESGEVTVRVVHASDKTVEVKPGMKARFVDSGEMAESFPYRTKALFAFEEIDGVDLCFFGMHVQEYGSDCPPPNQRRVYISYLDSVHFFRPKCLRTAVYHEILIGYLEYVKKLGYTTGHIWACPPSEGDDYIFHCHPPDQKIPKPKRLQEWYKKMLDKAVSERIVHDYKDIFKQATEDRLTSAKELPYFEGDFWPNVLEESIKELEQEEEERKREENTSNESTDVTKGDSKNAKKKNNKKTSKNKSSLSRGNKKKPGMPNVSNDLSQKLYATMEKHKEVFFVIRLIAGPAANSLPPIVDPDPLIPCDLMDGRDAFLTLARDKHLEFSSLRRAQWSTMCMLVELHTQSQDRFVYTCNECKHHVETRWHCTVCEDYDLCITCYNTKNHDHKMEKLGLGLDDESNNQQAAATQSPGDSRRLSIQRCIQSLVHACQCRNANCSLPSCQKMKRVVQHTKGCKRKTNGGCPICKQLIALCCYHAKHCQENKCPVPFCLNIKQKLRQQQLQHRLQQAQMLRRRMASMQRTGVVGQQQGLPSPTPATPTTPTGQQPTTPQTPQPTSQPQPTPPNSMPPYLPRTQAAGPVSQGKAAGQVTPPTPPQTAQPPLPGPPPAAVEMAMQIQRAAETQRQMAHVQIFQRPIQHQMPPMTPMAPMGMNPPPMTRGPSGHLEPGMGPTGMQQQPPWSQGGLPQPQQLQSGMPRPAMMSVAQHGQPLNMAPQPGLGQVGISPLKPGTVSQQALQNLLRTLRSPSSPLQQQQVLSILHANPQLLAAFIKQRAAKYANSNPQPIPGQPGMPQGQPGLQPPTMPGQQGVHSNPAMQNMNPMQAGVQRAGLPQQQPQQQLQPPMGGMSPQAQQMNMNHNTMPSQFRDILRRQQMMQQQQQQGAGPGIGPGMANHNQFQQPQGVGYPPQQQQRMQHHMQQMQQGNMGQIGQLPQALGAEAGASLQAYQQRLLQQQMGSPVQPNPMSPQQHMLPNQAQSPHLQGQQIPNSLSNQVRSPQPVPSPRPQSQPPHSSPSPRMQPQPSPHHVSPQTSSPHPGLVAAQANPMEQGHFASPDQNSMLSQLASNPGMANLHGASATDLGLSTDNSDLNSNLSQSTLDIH

Please review the entries below; each comes with its answer.
Compound	inhibition at 0.01 µM
CNC(=O)N1CCc2c(c(N3CCCc4cc(-c5cnn(CC(=O)NCCCCCCNc6ccc7c(c6)C(=O)N(C6CCC(=O)NC6=O)C7=O)c5)c(C(F)F)cc43)nn2C2CCOCC2)C1 (centres unmarked)	> 80%
CNC(=O)N1CCc2c(c(N3CCCc4cc(-c5cnn(CC(=O)NCCC(=O)N[C@H](C(=O)N6C[C@H](O)C[C@H]6C(=O)NCc6ccc(-c7scnc7C)cc6)C(C)(C)C)c5)c(C(F)F)cc43)nn2C2CCOCC2)C1	< 20%
CNC(=O)N1CCc2c(c(N3CCCc4cc(-c5cnn(C)c5)c(C(F)F)cc43)nn2C2CCN(C(=O)CCOCCNc3ccc4c(c3)C(=O)N(C3CCC(=O)NC3=O)C4=O)CC2)C1 (centres unmarked)	20 to 50%
CNC(=O)N1CCc2c(c(N3CCCc4cc(-c5cnn(CC(=O)NCCOCCNc6ccc7c(c6)C(=O)N(C6CCC(=O)NC6=O)C7=O)c5)c(C(F)F)cc43)nn2C2CCOCC2)C1 (centres unmarked)	< 20%

Moving on to the next compound.
Exercise: // lookup inhibition at 0.01 µM for CNC(=O)N1CCc2c(c(N3CCCc4cc(-c5cnn(CC(=O)NCCCCNc6ccc7c(c6)C(=O)N(C6CCC(=O)NC6=O)C7=O)c5)c(C(F)F)cc43)nn2C2CCOCC2)C1 (centres unmarked)
Solution: 20 to 50%
